Attribute: log10 GI50
- System: Ba/F3 cells expressing EGFR mutations
- Run description: Cell proliferation assay, Ba/F3 cells expressing EGFR mutations (CellTiter-Glo, 72 hours)
- Type: cell-based
- Test context: BaF3 cells, EGFR L858R-T790M, CellTiter-Glo, read-out: L858R-T790M/BaF3 GI50
A value of 2 here means GI50 of 100 in nM, since values are log10.

Field: example entries. Status: answers known.
Cn1ncc2c1OCCN1CC3CCC(C3)(C1)n1c(nc3ccc(N4CCC(N5CC(F)C5)C4)cc31)NC(=O)c1cc-2c(=O)n(C)c1 (single isomer, unassigned) [Example A94B1] : 1.08
COCCN(C)c1ccc2nc3n(c2c1)C12CCC(CN(CCOc4c(cnn4C)-c4cc(cn(C)c4=O)C(=O)N3)C1)C2 (single isomer, unassigned) [Example A90B] : 1.15

Query: Give a short answer stating reported log10 GI50 for CN1CC2CN(c3ccc4nc5n(c4c3)C34CCC(CN(CCOc6c(cnn6C)-c6cc(cn(C)c6=O)C(=O)N5)C3)C4)CC2C1 (single isomer, unassigned) [Example A68A] .
Result: 3.05

Query: Give a short answer stating reported log10 GI50 for CN(C)C1CN(c2ccc3nc4n(c3c2)C23CCC(CN(CCOc5c(cnn5C)-c5cc(cn(C)c5=O)C(=O)N4)C2)C3)CC1F (single isomer, unassigned) [Example A84D] .
Result: 1.60

Query: Give a short answer stating reported log10 GI50 for CN(C)[C@@H]1CCN(c2ccc3nc4n(c3c2)C23CCC(CN(CCOc5c(cnn5C)-c5cc(cn(C)c5=O)C(=O)N4)C2)C3)C1 (single isomer, unassigned) [Example A66C] .
Result: 3.18

====

- Target desc: EGFR L858R (Homo sapiens, UniProt P00533, L858R)
- Construct: purchased Carna Bio
- Sequence (P00533 25-1210 L858R): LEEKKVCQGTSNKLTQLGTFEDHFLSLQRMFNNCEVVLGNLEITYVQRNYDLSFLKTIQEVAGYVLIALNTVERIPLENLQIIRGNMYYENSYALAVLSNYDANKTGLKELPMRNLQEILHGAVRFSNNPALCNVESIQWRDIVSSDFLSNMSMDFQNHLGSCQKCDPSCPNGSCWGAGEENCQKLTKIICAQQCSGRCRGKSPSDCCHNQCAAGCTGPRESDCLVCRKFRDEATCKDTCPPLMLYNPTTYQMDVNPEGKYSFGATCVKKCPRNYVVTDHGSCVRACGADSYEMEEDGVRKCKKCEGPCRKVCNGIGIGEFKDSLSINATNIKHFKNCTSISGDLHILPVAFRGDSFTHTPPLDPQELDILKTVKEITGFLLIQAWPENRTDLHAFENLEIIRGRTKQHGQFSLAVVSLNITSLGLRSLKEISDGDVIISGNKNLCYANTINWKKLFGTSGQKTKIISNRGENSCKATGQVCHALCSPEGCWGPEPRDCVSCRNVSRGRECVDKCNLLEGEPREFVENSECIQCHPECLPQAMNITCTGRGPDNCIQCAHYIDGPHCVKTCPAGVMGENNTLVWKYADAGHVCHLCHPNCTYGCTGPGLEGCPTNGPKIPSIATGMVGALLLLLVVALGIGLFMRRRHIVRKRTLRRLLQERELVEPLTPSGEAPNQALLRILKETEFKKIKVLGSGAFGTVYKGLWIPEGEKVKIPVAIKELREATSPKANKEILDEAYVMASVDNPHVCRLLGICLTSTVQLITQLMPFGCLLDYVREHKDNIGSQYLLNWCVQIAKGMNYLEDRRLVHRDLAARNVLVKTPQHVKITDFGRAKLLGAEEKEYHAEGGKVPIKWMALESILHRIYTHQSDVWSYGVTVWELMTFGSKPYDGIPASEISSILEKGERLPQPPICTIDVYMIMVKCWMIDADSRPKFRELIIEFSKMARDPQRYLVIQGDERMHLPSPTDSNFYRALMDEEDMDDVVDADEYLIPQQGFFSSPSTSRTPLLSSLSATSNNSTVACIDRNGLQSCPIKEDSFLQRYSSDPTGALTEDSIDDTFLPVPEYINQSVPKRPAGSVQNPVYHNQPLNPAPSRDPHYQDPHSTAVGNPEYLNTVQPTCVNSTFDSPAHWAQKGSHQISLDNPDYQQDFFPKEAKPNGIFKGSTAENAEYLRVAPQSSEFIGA
- Run description: Inhibition of EGFR L858R biochemical enzymatic activity (HTRF)
- Test context: 1 mM ATP, 1 h, room temperature, read-out: IC50 (nM) @L858R
Attribute: IC50
Just the number please, in nM, no unit attached.

Field: example entries. Status: answers known.
CN1CCC2(CCN(c3ccc4nc5n(c4c3)C34CCC(CN(CCOc6c(cnn6C)-c6cc(cn(C)c6=O)C(=O)N5)C3)C4)C2)C1 (single isomer, unassigned) [Example A81A] : 1530
C[C@@H]1CCCOc2c(cnn2C)-c2cc(cn(C)c2=O)C(=O)Nc2nc3ccc(N4CC(N(C)C)C4)cc3n2C1 : 40
Cc1cc2cc(n1)-c1cnn(C)c1OCCN(CC(F)F)CCn1c(nc3ccccc31)NC2=O : 440

Proceed to the following item.
Query: Give a short answer stating reported IC50 for CN1CCC2(CC1)CCN(c1ccc3nc4n(c3c1)C13CCC(CN(CCOc5c(cnn5C)-c5cc(cn(C)c5=O)C(=O)N4)C1)C3)C2 (single isomer, unassigned) [Example A88B] .
Result: 4.8

====

- Test system: PC-9
- Run description: Cell proliferation assay, PC-9 cells (CellTiter-Glo, 72 hours)
- Assay type: cell-based
- Test context: Homo sapiens, PC-9, 72 h, PC9 cells, read-out: GI50 PC9
Value type: GI50 (nM)
Just the number please, in nM, no unit attached.

Field: example entries. Status: answers known.
Cc1cc2cc(n1)-c1cnn(C)c1OCCN1CC3CCC(CC3)(C1)n1c(nc3ccc(N4CCC5(CCN(C)CC5)C4)cc31)NC2=O [Example B31] : 103
Cc1cc2cc(n1)-c1cnn(C)c1OCCN1CC3CCC(CC3)(C1)n1c(nc3ccc(N(C)CCCN(C)C)cc31)NC2=O [Example B33] : 75
Cc1cc2cc(n1)-c1cnn(C)c1OCCN1CCCCC(C1)n1c(nc3ccccc31)NC2=O (stereo not drawn) [Example B4] : 292
Cc1cc2cc(n1)-c1cnn(C)c1OCCCCCn1c(nc3ccc4c(c31)CN(C1COC1)CC4)NC2=O [Example B18] : 122
Cc1cc2cc(n1)-c1cnn(C)c1OCCCCCn1c(nc3ccn(C)c(=O)c31)NC2=O [Example B20] : 1280
Cc1cc2cc(n1)-c1cnn(C)c1OCCN1CC3CCC(CC3)(C1)n1c(nc3ccc(N4CCC5(CN(C)C5)C4)cc31)NC2=O [Example B37] : 106
CN1CCC12CCN(c1ccc3nc4n(c3c1)C13CCC(CC1)CN(CCOc1c(cnn1C)-c1cc(cn(C)c1=O)C(=O)N4)C3)CC2 [Example A122] : 22
Cn1ncc2c1OCCN1CC3CCC(CC3)(C1)n1c(nc3ccc(N4CCN(C5CC5)CC4)cc31)NC(=O)c1cc-2c(=O)n(C)c1 [Example A128] : 61
Cc1cc2cc(n1)-c1cnn(C)c1OCCN1CC3CCC(CC3)(C1)n1c(nc3ccc(N4CCC5(CC4)CCN5C)cc31)NC2=O [Example B30] : 33
Cc1cc2cc(n1)-c1cnn(C)c1OCCC[C@@H](C)Cn1c(nc3ccc4c(c31)CCN(C1COC1)C4)NC2=O [Example B13] : 22

Query: Give a short answer stating reported GI50 for Cc1cc2cc(n1)-c1cnn(C)c1OCCN1CCOCC(C1)n1c(nc3ccccc31)NC2=O (stereo not drawn) [Example B7] .
Result: 667

Query: Give a short answer stating reported GI50 for Cc1cc2cc(n1)-c1cnn(C)c1OCCN1CC3CCC(C3)(C1)n1c(nc3ccc(N4CCN(C)CC4)cc31)NC2=O (stereo not drawn) [Example B9B] .
Result: 6.1

Query: Give a short answer stating reported GI50 for Cc1cc2cc(n1)-c1cnn(C)c1OCCN1CC3CCC(C3)(C1)n1c(nc3ccc(N4CCN(C)CC4)cc31)NC2=O (single isomer, unassigned) [Example B9A] .
Result: 438

Query: Give a short answer stating reported GI50 for CN1CC2CN(c3ccc4nc5n(c4c3)C34CCC(CC3)CN(CCOc3c(cnn3C)-c3cc(cn(C)c3=O)C(=O)N5)C4)CC2C1 (stereo not drawn) [Example A126] .
Result: 34

Query: Give a short answer stating reported GI50 for Cc1cc2cc(n1)-c1cnn(C)c1OCCN1CC3CCC(CC3)(C1)n1c(nc3ccc(N4CCN(C(C)C)CC4)cc31)NC2=O [Example B39] .
Result: 178

Query: Give a short answer stating reported GI50 for CN(C)C1CCN(c2ccc3nc4n(c3c2)C23CCC(CC2)CN(CCOc2c(cnn2C)-c2cc(cn(C)c2=O)C(=O)N4)C3)CC1 [Example A119] .
Result: 11

Query: Give a short answer stating reported GI50 for CN1CCN(c2ccc3nc4n(c3c2)C(C)(C)CCCCOc2c(cnn2C)-c2cc(cn(C)c2=O)C(=O)N4)CC1 [Example A112] .
Result: 45

Query: Give a short answer stating reported GI50 for Cc1cc2cc(n1)-c1cnn(C)c1OCCN1CC3CCC(CC3)(C1)n1c(nc3ccc(N4CCC(N(C)C)CC4)cc31)NC2=O [Example B27] .
Result: 19

====

- Target desc: EGFR Exon19Del/T790M (Homo sapiens, UniProt P00533, DEL746-750/T790M)
- Construct: purchased Carna Bio
- Sequence (P00533 with tags, fused parts or gaps DEL746-750/T790M limits assumed): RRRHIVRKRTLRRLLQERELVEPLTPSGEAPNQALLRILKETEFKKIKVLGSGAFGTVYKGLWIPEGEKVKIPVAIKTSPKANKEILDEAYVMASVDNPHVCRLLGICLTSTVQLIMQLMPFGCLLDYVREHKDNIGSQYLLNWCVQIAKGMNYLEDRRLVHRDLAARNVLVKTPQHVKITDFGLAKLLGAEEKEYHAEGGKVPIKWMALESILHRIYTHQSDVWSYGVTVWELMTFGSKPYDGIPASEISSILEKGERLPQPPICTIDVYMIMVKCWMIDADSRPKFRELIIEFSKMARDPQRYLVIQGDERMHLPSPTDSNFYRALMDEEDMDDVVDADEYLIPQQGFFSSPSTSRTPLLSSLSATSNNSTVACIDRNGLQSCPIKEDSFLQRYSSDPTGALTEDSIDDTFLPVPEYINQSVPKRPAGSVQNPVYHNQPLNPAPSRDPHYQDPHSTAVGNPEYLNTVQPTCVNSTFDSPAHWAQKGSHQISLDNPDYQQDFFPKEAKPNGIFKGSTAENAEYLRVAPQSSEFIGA
- Run description: Inhibition of EGFR Exon19Del/T790M biochemical enzymatic activity (HTRF)
- Test context: EGFR Del19-T790M, 1 mM ATP, 1 h, room temperature, read-out: IC50 (nM) @Del19-T790M
Attribute: IC50
Just the number please, in nM, no unit attached.

CN1CCN(c2ccc3nc4n(c3c2)C23CCC(CC2)CN(CCOc2c(cnn2C)-c2cc(cn(C)c2=O)C(=O)N4)C3)CC1 : 3.8
CN1CCC2(CC1)CCN(c1ccc3nc4n(c3c1)C13CCC(CN(CCOc5c(cnn5C)-c5cc(cn(C)c5=O)C(=O)N4)C1)C3)C2 (single isomer, unassigned) [Example A88B] : 4.9
CN1CCN(c2ccc3c(c2)nc2n3C34CCC(CN(CCOc5c(cnn5C)-c5cc(cn(C)c5=O)C(=O)N2)C3)C4)CC1 (stereo not drawn) [Example A60A] : 141

Proceed to the following item.
Query: # return IC50 for Cn1ncc2c1OCCN1CC3CCC(C3)(C1)n1c(nc3cc(F)ccc31)NC(=O)c1cc-2c(=O)n(C)c1 (stereo not drawn) [Example A117B] , test system: EGFR Exon19Del/T790M (Homo sapiens, UniProt P00533, DEL746-750/T790M)
Result: 3.3

====

- Target desc: EGFR[T790M/C797S/d746-750] (Homo sapiens, UniProt P00533, C797S/DEL746-750/T790M)
- Construct: purchased Carna Bio
- Sequence (P00533 with tags, fused parts or gaps DEL746-750/T790M/C797S limits assumed): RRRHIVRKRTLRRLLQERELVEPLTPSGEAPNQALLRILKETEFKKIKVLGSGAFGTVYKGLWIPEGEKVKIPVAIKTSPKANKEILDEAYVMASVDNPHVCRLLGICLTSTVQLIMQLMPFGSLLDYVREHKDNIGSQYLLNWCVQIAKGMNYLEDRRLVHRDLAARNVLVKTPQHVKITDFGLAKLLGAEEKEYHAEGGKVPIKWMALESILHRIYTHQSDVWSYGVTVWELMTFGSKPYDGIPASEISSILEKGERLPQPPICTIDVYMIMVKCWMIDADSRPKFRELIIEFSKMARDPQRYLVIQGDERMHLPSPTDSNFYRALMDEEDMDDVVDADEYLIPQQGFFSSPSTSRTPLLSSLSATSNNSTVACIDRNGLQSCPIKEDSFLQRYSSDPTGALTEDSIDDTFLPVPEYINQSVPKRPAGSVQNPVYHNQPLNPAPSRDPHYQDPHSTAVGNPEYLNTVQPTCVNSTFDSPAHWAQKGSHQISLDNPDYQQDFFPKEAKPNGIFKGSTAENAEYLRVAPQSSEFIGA
- Run description: Inhibition of EGFR[T790M/C797S/d746-750] biochemical enzymatic activity (HTRF)
- Test context: EGFR[T790M/C797S/d746-750], 1 mM ATP, 1 h at room temperature, read-out: IC50 @T790M - C797S - Del19
Value type: IC50 (nM)
Just the number please, in nM, no unit attached.

Field: example entries. Status: answers known.
Cc1cc2cc(n1)-c1cnn(C)c1OCCN1CC3CCC(C3)(C1)n1c(nc3ccc(N4CCC5(CN(C)C5)C4)cc31)NC2=O (single isomer, unassigned) [Example B50B] : 2.4
Cc1cc2cc(n1)-c1cnn(C)c1OCCCCCn1c(nc3ccc4c(c31)CCNC4)NC2=O : 3.2
Cc1cc2cc(n1)-c1cnn(C)c1OCCN1CC3CCC(C3)(C1)n1c(nc3ccc(N4CCC(N5CCN(C)CC5)CC4)cc31)NC2=O (single isomer, unassigned) [Example B59B] : 6.1

Query: Give a short answer stating reported IC50 for `Cc1cc2cc(n1)-c1cnn(C)c1OCCCCCn1c(nc3ccc4c(c31)CN(C1COC1)CC4)NC2=O` .
Result: 31
